experiment: Metabolic stability in bile-duct cannulated Sprague-Dawley rat assessed as parent compound remaining in kidney at 3 mg/kg, iv measured over 8 hrs post dose; assay type: ADME, organism-based; settings: read-out: Stability
recorded-endpoint: remaining at 8 h (%)
Value expressed in %; do not type the unit.

Recorded remaining at 8 h (compound CC(CN1CCOCC1)Nc1ccc2cc(-n3cnc4cnc5cnc(-c6ccncc6)cc5c43)ccc2n1 (racemic) ): 22

###

experiment: Half life in wild type Sprague-Dawley rat liver S9 fraction at 1 uM in absence of NADPH by HPLC/MS analysis
recorded-endpoint: half-life at 1 µM

For reference, reported half-life at 1 µM for CC(CN1CCOCC1)Nc1ccc2cc(-n3cnc4cnc5cnc(-c6ccncc6)cc5c43)ccc2n1 (racemic) stands at < 5 min

###

assay: Oral bioavailability in wild type Sprague-Dawley rat at 3 mg/kg; format: ADME, organism-based; details: in vivo
recorded-endpoint: bioavailability (%)
Report the value in % with no unit label.

Lookup result for CC(CN1CCOCC1)Nc1ccc2cc(-n3cnc4cnc5cnc(-c6ccncc6)cc5c43)ccc2n1 (racemic) ; measured bioavailability: 26

###

target: Mitogen-activated protein kinase kinase kinase 8 (Homo sapiens); assay: Inhibition of COT in LPS-stimulated human PBMC assessed as reduction in TNFalpha release incubated for 1 hr followed by stimulation with LPS for 4 hrs by HTRF assay
recorded-endpoint: pIC50
Quick note: pIC50 values are minus log10 of concentrations in mol/L.

Value of measured pIC50 for the entry CC(CN1CCOCC1)Nc1nc2ccc(-n3cnc4cnc5cnc(-c6ccncc6)cc5c43)cc2s1 (stereo not drawn) : 7.15

Entry `C[C@@H](CN1CCOCC1)Nc1ccc2cc(-n3cnc4cnc5cnc(-c6ccncc6)cc5c43)ccc2n1` — recorded pIC50 = 5.90

// pIC50 value for CC(CN1CCOCC1)Nc1ccc2cc(-n3cnc4cnc5cnc(-c6ccncc6)cc5c43)ccc2n1 (racemic) : 7.22

Value of pIC50 reported for the compound `c1cnc2ccc(-n3cnc4cnc5cnc(-c6ccsc6)cc5c43)cc2c1` is 6.36

In plain terms, CC(CN1CCOCC1)Nc1nc2ccc(-n3cnc4cnc5cnc(-c6ccccc6)cc5c43)cc2s1 (stereo not drawn) has a documented pIC50 of 6.89

Record `c1ccc(-c2cc3c(cn2)ncc2ncn(-c4ccc5nc(NCCN6CCOCC6)sc5c4)c23)cc1` , field pIC50: 6.57

Query CC(CN1CCOCC1)Nc1nc2ccc(-n3cnc4cnc5cnc(-c6cccs6)cc5c43)cc2s1 (stereo not drawn) yields pIC50 of 6.54

The compound identified as `C[C@H](CN1CCOCC1)Nc1ccc2cc(-n3cnc4cnc5cnc(-c6ccncc6)cc5c43)ccc2n1` registered its pIC50 at 7.52

###

Provide the recorded IC50 for the entries that follow.
biological target: Mitogen-activated protein kinase kinase kinase 8 (Homo sapiens, UniProt P41279); test: Inhibition of human COT (66 to 395 residues) expressed in Sf21 cells using 5-Fluo-Ahx-AGAGSGQLIDSNleANSFVGTR-NH2 as substrate after 60 mins by caliper microfluidic mobility shift assay
Sequence (P41279 whole entry, the tested form may be a part): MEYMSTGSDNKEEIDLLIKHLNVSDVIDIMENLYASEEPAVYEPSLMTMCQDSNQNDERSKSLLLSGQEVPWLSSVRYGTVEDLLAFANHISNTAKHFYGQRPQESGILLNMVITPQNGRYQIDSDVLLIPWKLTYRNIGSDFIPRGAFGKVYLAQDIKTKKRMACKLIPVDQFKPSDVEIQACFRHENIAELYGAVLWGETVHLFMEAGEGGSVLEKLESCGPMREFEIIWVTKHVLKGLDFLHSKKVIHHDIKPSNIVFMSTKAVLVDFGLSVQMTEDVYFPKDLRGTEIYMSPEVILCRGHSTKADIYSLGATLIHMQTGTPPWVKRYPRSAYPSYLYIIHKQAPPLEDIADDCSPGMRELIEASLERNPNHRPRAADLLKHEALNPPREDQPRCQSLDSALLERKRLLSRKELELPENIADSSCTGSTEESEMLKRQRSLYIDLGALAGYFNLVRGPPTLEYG
Number plus unit, in that order.

Entry `c1nc2ccc(-n3cnc4cnc5cnc(-c6cn[nH]c6)cc5c43)cc2[nH]1` , IC50 reported as 150 nM

Please fill in: IC50 reported for `c1ccc(-c2cc3c(cn2)ncc2ncn(-c4ccc5nc(NCCN6CCOCC6)sc5c4)c23)cc1` = 16 nM

IC50 in this record for `c1cncc(-c2cc3c(cn2)ncc2ncn(-c4ccc5nc[nH]c5c4)c23)c1` : 670 nM

Notebook: CC(CN1CCOCC1)Nc1nc2ccc(-n3cnc4cnc5cnc(-c6ccncc6)cc5c43)cc2s1 (centres undefined) , IC50 read as 9 nM

molecule `c1nc2ccc(-n3cnc4cnc5cnc(-c6cnsc6)cc5c43)cc2[nH]1` , IC50 observed: 160 nM

Looking up `Cc1nc2ccc(-n3cnc4cnc5cnc(-c6ccccc6)cc5c43)cc2s1` , I found its IC50 recorded as 80 nM

response.value for `C[C@@H](CN1CCOCC1)Nc1ccc2cc(-n3cnc4cnc5cnc(-c6ccncc6)cc5c43)ccc2n1` (field: IC50) = 38 nM

Value of measured IC50 for the entry CC(CN1CCOCC1)Nc1nc2ccc(-n3cnc4cnc5cnc(-c6ccccc6)cc5c43)cc2s1 (centres undefined) : 9 nM

Item: `c1nc2ccc(-n3cnc4cnc5cnc(-c6ccsc6)cc5c43)cc2[nH]1` | IC50: 40 nM
